- assay_text: Plasma clearance upon i.v. dose of 1 mg/kg in rats
- Type: ADME, organism-based
- Set-up: dose 1 mg/kg, route intravenous
- protocol_conditions: rat, iv
Let's look at some compounds and their measured log10(clearance).
The base-10 logarithm of clearance, taken with clearance in mL/min/kg, is what appears here.

[
  {
    "smiles_entry": "C[C@@H]1CCCN1CCc1cc2cc(-c3ccc(C#N)cc3)ccc2o1",
    "numeric_result": 1.41
  },
  {
    "smiles_entry": "CCc1cnc(Nc2ccc3oc(CCN4CCC[C@H]4C)cc3c2)nc1",
    "numeric_result": 1.67
  },
  {
    "smiles_entry": "CCc1cnc(NCc2ccc3oc(CCN4CCC[C@H]4C)cc3c2)nc1",
    "numeric_result": 1.90
  },
  {
    "smiles_entry": "C[C@@H]1CCCN1CCc1cc2cc(CNc3ncccn3)ccc2o1",
    "numeric_result": 1.68
  }
]

Moving on to the next compound.
Data request: Find the recorded log10(clearance) belonging to C[C@@H]1CCCN1CCc1cc2cc(Nc3cncnc3)ccc2o1 and report it.
Data returned: 2.68
